# Target or system: T1, cyno EpCAM (recombinant, ELISA antigen) (cynomolgus monkey)
# T1 construct: extracellular domain; also called cynomolgus EpCAM extracellular domain
# T1 sequence (Q1WER1 24-265): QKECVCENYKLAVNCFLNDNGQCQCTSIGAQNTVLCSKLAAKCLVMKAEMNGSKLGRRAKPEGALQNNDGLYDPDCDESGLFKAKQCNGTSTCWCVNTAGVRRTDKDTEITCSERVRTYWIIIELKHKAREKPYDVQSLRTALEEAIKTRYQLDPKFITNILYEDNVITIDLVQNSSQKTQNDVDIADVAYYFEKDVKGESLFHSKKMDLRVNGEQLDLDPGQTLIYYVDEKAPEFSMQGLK
# Test details: ELISA of MMAE conjugates, cyno EpCAM, pH 6.0
Endpoint label: EC50 (µg/mL)

{"Binder": "BA-105.4-01-05 8317-vcMMAE (antibody, V domains shown, antibody conjugated to vcMMAE; chain and residues of attachment not stated) VH: EVQLVQSGAEVKKPGATVKISCKVSGYTFTSYWMHWIRQPPGKGLEWIGYIRPSTGYTEYNQKFKDRFTISRDNSKNTLYLQMNSLRAEDTAVYYCGRGDNWVGFANWGQGTLVTVSS VL: EIVLTQSPDFQSVTPKEKVTITCSASSSISYMHWYQQKPGKAPKLLIYSTSNLASGVPDRFSGSGSGTDFTLKISRVEAEDVGVYYCHQWSTYETFGQGTKVEIK", "Endpoint label": "EC50", "Measured": 0.0659}
{"Binder": "BA-105.4-01-02 8316-vcMMAE (antibody, V domains shown, antibody conjugated to vcMMAE; chain and residues of attachment not stated) VH: EVQLVQSGAEVKKPGESLRISCKGSGYTFTSYWMHWIRQSPSRGLEWLGYIRPSTGYTEYNQKFKDRVTISADKSISTAYLQWSSLKASDTAMYYCGRGDNWVGFANWGQGTLVTVSS VL: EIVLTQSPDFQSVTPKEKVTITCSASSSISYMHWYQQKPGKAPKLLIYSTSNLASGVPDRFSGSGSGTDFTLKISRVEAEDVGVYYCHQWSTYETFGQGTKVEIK", "Endpoint label": "EC50", "Measured": 0.0877}
{"Binder": "BA-105-01-01 7376-vcMMAE (antibody, V domains shown, antibody conjugated to vcMMAE; chain and residues of attachment not stated) VH: QVQLQQSGAELAKPGASVKVSCKASGYTFTSYWMHWVKQRPGQGLEWIGYIRPSTGYTEYNQKFKDKATLTADKSSSTAYMQLSSLTFEDSAVYYCGRGDNWVGFANWGQGTLVTVSA VL: QIVLTQSPAIMSASLGEEIALTCSASSSISYMHWYQQKSGTSPKLLIYSTSNLASGVPSRFSGSGSGTFYSLTISSVEAEDAADYFCHQWSTYHTFGSGTKLEIK", "Endpoint label": "EC50", "Measured": 0.0311}
{"Binder": "BA-105.4-02-01 8318-vcMMAE (antibody, V domains shown, antibody conjugated to vcMMAE; chain and residues of attachment not stated) VH: EVQLVQSGAEVKKPGATVKISCKVSGYTFTSYWMHWVRQAPGQGLEWMGYIRPSTGYTEYNQKFKDRFTISRDNSKNTLYLQMNSLRAEDTAVYYCGRGDNWVGFANWGQGTLVTVSS VL: EIVMTQSPATLSVSPGERATLSCSASSSISYMHWYQQKPGKAPKLLIYSTSNLASGVPSRFSGSGSGTEFTLTISSLQPDDFATYYCHQWSTYETFGQGTKVEIK", "Endpoint label": "EC50", "Measured": 0.0809}
